# MEASUREMENT DESCRIPTION: HFrEF study Part 2 (MAD Cohorts A-D): plasma pharmacokinetics
# Type: in vivo, human
# TEST CONDITIONS: human, plasma, oral, 75 mg, MAD Cohort C, 75 mg BID (with food); Mean; read-out: Cmax, SS
# Excerpt: This was a randomized, parallel-group, DB, placebo-controlled, adaptive design, sequential ascending (oral) multiple-close study in stable patients with heart failure. Four MAD Cohorts (A, B, C, D) were enrolled (FIG. 5B). An SRC reviewed results from each cohort and determined the close and confirmed initial sample size for the subsequent cohort. […]
QUANTITY: Cmax (ng/mL)
Give bare numbers, in ng/mL.

Bench note: what Cmax did Cn1cc(S(=O)(=O)[C@@](C)(F)C2CCN(C(=O)Nc3ccon3)CC2)c(C(F)F)n1 show?
3940
